Source: PubChem BioAssay (NCI)

system: CCRF-CEM leukemia; assay: NCI-60 one-dose screen, 48 h (100 = growth as untreated, 0 = no growth, -100 = all killed); settings: 10 µM unless noted
This is part of a sample that, as a whole, favours compounds with a hit. Of some 83,000 tested, about 20% had one in any assay.
In this section we review reported growth values for a set of molecules.
A number alone suffices; assume %.

Example cases with answers are listed next.
MOLECULE	TARGET OF ASSAY	MEASURED
N#Cc1c(-c2cccc3ccccc23)cc(-c2cccc(OCC(=O)O)c2)[nH]c1=O	CCRF-CEM leukemia	96.8
COc1ccc(-c2nc3cc(C)ccc3n2CC(=O)N=Nc2c(O)[nH]c3ccccc23)cc1	CCRF-CEM leukemia	79.1
N#Cc1c(-c2ccc(Cl)cc2)nc2n[nH]c(-c3ccc(Cl)cc3)c2c1-c1ccc(C(F)(F)F)cc1	CCRF-CEM leukemia	-7.76
Cc1ccc(-c2nc(Nc3ccccc3S(N)(=O)=O)c3ccccc3n2)cc1	CCRF-CEM leukemia	76.1
Cc1nc(Nc2ncc(C(=O)Nc3c(C)cccc3Cl)s2)cc(N2CCN(CCCNC(=O)COc3ccc(C4CCC(=O)NC4=O)cc3)CC2)n1 (configuration not stated)	CCRF-CEM leukemia	95.1

Ask | // returns reported growth for input `O=C(N/N=C/c1ccc(-c2ccc(O)cc2)s1)c1[nH]c2ccc(Br)cc2c1-c1ccccc1`
Reply | -8.51

Ask | Then this molecule: `O=c1c2ccccc2nc(-c2ccccc2)n1/N=C/c1ccc2ccccc2c1`
Reply | 51.9

Ask | // repeat for CC(=O)OC[C@@]1(C)C2CC[C@]3(C)C(CC=C4C5CC(C)(C)CC[C@]5(C(=O)Nc5ccc(F)cc5)CC[C@]43C)[C@@]2(C)C[C@@H](OC(C)=O)[C@@H]1OC(C)=O (some centres not stated) and report
Reply | 29.8

Ask | Check `COc1cc(OC)cc(-c2cc3ccc(N(C)C)cc3c(=O)[nH]2)c1` too.
Reply | 15.5
